ASSAYED SYSTEM: rat α1β2γ2L type GABAA receptors (Rattus norvegicus (Rat), UniProt P62813+P63138, INS375LLRMFSFK)
EXPERIMENT DESCRIPTION: Oocyte electrophysiology: potentiation of 2 μM GABA chloride currents and direct gating, Xenopus laevis oocytes
Type: cell-based
DETAILS: 0.1 μM compound, 2 μM GABA; ± SEM, N ≥ 4
The following compounds are listed with their measured ratio of currents measured in the presence/absence of added compound, 0.1 μM values.

Which ratio of currents measured in the presence/absence of added compound, 0.1 μM value is on record for C[C@]12CC[C@@H](O)C[C@H]1CC[C@@H]1[C@@H]2CC[C@]2(C)/C(=C/C#N)CC[C@@H]12 [Compound 15b] ?
0.94 ± 0.02

Now consider C[C@]12CC[C@@H](O)C[C@H]1CC[C@@H]1[C@@H]2CC[C@]2(C)/C(=C\C#N)CC[C@@H]12 [Compound 15a] and answer again.
1.32 ± 0.03

Now consider CO[C@H]1C[C@@]2(C)[C@@H](CC[C@@H]3[C@@H]2CC[C@]2(C)/C(=C\C#N)CC[C@@H]32)C[C@@H]1O [Compound 16a] and answer again.
2.14 ± 0.33

***
Which ratio of currents measured in the presence/absence of added compound, 0.1 μM value is on record for CO[C@H]1C[C@]2(C)/C(=C/C#N)CC[C@H]2[C@@H]2CC[C@H]3C[C@H](O)CC[C@]3(C)[C@H]21 [Compound 17b] ?
0.99 ± 0.02

---

ASSAYED SYSTEM: rat α1β2γ2L type GABAA receptors (Rattus norvegicus (Rat), UniProt P62813+P63138, INS375LLRMFSFK)
EXPERIMENT DESCRIPTION: Oocyte electrophysiology: potentiation of 2 μM GABA chloride currents and direct gating, Xenopus laevis oocytes
Assay type: cell-based
DETAILS: 0.1 μM compound, 2 μM GABA; ± SEM, N ≥ 4
READOUT LABEL: ratio of currents measured in the presence/absence of added compound, 0.1 μM
Answer with the value's number alone.

Which ratio of currents measured in the presence/absence of added compound, 0.1 μM value is on record for CO[C@H]1C[C@]2(C)/C(=C\C#N)CC[C@H]2[C@@H]2CC[C@H]3C[C@H](O)CC[C@]3(C)[C@H]21 [Compound 17a] ?
2.14

Now consider C[C@]12CC[C@@H](O)C[C@@H]1CC[C@@H]1[C@@H]2CC[C@]2(C)/C(=C/C#N)CC[C@@H]12 [Compound 14b] and answer again.
0.76

Now consider CO[C@H]1C[C@@]2(C)[C@@H](CC[C@@H]3[C@@H]2CC[C@]2(C)/C(=C/C#N)CC[C@@H]32)C[C@@H]1O [Compound 16b] and answer again.
0.95

Switching to the query record.
Which ratio of currents measured in the presence/absence of added compound, 0.1 μM value is on record for C[C@]12CC[C@@H](O)C[C@@H]1CC[C@@H]1[C@@H]2CC[C@]2(C)/C(=C\C#N)CC[C@@H]12 [Compound 14a] ?
2.18

---

The following compounds are listed with their measured ratio of currents measured in the presence/absence of added compound, 1 μM values.
ASSAYED SYSTEM: rat α1β2γ2L type GABAA receptors (Rattus norvegicus (Rat), UniProt P62813+P63138, INS375LLRMFSFK)
EXPERIMENT DESCRIPTION: Oocyte electrophysiology: potentiation of 2 μM GABA chloride currents and direct gating, Xenopus laevis oocytes
Format: cell-based
DETAILS: 1 μM compound, 2 μM GABA; ± SEM, N ≥ 4
Answer with the value's number alone.

Examples with answers:
Which ratio of currents measured in the presence/absence of added compound, 1 μM value is on record for C[C@]12CC[C@@H](O)C[C@H]1CC[C@@H]1[C@@H]2CC[C@]2(C)/C(=C\C#N)CC[C@@H]12 [Compound 15a] ?
5.00

Now consider CO[C@H]1C[C@@]2(C)[C@@H](CC[C@@H]3[C@@H]2CC[C@]2(C)/C(=C/C#N)CC[C@@H]32)C[C@@H]1O [Compound 16b] and answer again.
1.34

***
Which ratio of currents measured in the presence/absence of added compound, 1 μM value is on record for C[C@]12CC[C@@H](O)C[C@H]1CC[C@@H]1[C@@H]2CC[C@]2(C)/C(=C/C#N)CC[C@@H]12 [Compound 15b] ?
1.24

Now consider C[C@]12CC[C@@H](O)C[C@@H]1CC[C@@H]1[C@@H]2CC[C@]2(C)/C(=C\C#N)CC[C@@H]12 [Compound 14a] and answer again.
3.28

Now consider CO[C@H]1C[C@]2(C)/C(=C\C#N)CC[C@H]2[C@@H]2CC[C@H]3C[C@H](O)CC[C@]3(C)[C@H]21 [Compound 17a] and answer again.
10.28

Now consider CO[C@H]1C[C@]2(C)/C(=C/C#N)CC[C@H]2[C@@H]2CC[C@H]3C[C@H](O)CC[C@]3(C)[C@H]21 [Compound 17b] and answer again.
1.07

Now consider C[C@]12CC[C@@H](O)C[C@@H]1CC[C@@H]1[C@@H]2CC[C@]2(C)/C(=C/C#N)CC[C@@H]12 [Compound 14b] and answer again.
1.30

Now consider CO[C@H]1C[C@@]2(C)[C@@H](CC[C@@H]3[C@@H]2CC[C@]2(C)/C(=C\C#N)CC[C@@H]32)C[C@@H]1O [Compound 16a] and answer again.
12.02

---

ASSAYED SYSTEM: rat α1β2γ2L type GABAA receptors (Rattus norvegicus (Rat), UniProt P62813+P63138, INS375LLRMFSFK)
EXPERIMENT DESCRIPTION: Oocyte electrophysiology: potentiation of 2 μM GABA chloride currents and direct gating, Xenopus laevis oocytes
Assay type: cell-based
DETAILS: 10 μM compound in the absence of GABA; ± SEM
READOUT LABEL: (gating) 10 μM: ratio of compound only current/2 μM GABA current
Answer with the value's number alone.

Examples with answers:
Which (gating) 10 μM: ratio of compound only current/2 μM GABA current value is on record for C[C@]12CC[C@@H](O)C[C@H]1CC[C@@H]1[C@@H]2CC[C@]2(C)/C(=C/C#N)CC[C@@H]12 [Compound 15b] ?
0.01

Now consider CO[C@H]1C[C@]2(C)/C(=C/C#N)CC[C@H]2[C@@H]2CC[C@H]3C[C@H](O)CC[C@]3(C)[C@H]21 [Compound 17b] and answer again.
0.01

Now consider C[C@]12CC[C@@H](O)C[C@@H]1CC[C@@H]1[C@@H]2CC[C@]2(C)/C(=C/C#N)CC[C@@H]12 [Compound 14b] and answer again.
−0.14

Switching to the query record.
Which (gating) 10 μM: ratio of compound only current/2 μM GABA current value is on record for CO[C@H]1C[C@@]2(C)[C@@H](CC[C@@H]3[C@@H]2CC[C@]2(C)/C(=C\C#N)CC[C@@H]32)C[C@@H]1O [Compound 16a] ?
0.40

---

ASSAYED SYSTEM: picrotoxin binding site on GABAA receptors
DETAILS: duplicate experiments in triplicate; ± SEM; read-out: IC50, inhibition of [35S]-TBPS binding
The following molecules are listed with their measured IC50 values.
# unit: nM | format: bare number

Examples with answers:
Which IC50 value is on record for C[C@]12CC[C@@H](O)C[C@@H]1CC[C@@H]1[C@@H]2CC[C@]2(C)/C(=C\C#N)CC[C@@H]12 [Compound 14a] ?
25

Now consider C[C@]12CC[C@@H](O)C[C@H]1CC[C@@H]1[C@@H]2CC[C@]2(C)/C(=C\C#N)CC[C@@H]12 [Compound 15a] and answer again.
56

Now consider CO[C@H]1C[C@@]2(C)[C@@H](CC[C@@H]3[C@@H]2CC[C@]2(C)/C(=C\C#N)CC[C@@H]32)C[C@@H]1O [Compound 16a] and answer again.
28

Now consider C[C@]12CC[C@@H](O)C[C@H]1CC[C@@H]1[C@@H]2CC[C@]2(C)/C(=C/C#N)CC[C@@H]12 [Compound 15b] and answer again.
1200

Now consider C[C@]12CC[C@@H](O)C[C@@H]1CC[C@@H]1[C@@H]2CC[C@]2(C)/C(=C/C#N)CC[C@@H]12 [Compound 14b] and answer again.
501

Now consider CO[C@H]1C[C@]2(C)/C(=C\C#N)CC[C@H]2[C@@H]2CC[C@H]3C[C@H](O)CC[C@]3(C)[C@H]21 [Compound 17a] and answer again.
53

***
Which IC50 value is on record for CO[C@H]1C[C@]2(C)/C(=C/C#N)CC[C@H]2[C@@H]2CC[C@H]3C[C@H](O)CC[C@]3(C)[C@H]21 [Compound 17b] ?
605

Now consider CO[C@H]1C[C@@]2(C)[C@@H](CC[C@@H]3[C@@H]2CC[C@]2(C)/C(=C/C#N)CC[C@@H]32)C[C@@H]1O [Compound 16b] and answer again.
544
